Assay: NCI Yeast Anticancer Drug Screen. Data for the wt2 strain (AID 169)
Details: S. cerevisiae wt2 strain growth inhibition; at 1.2 µM
This is part of a sample that, as a whole, favours compounds with a hit. Of some 79,000 tested, about 15% had one in any assay. Active and inactive are the calls of the source. Cut-off read from the data, not from the text of the source: active = growth inhibition above about 70%; inactive = the rest.
Reply using exactly one outcome from active, inactive

Below are worked cases with known answers.
{"Compound": "CCCCCCCCCCCCCCN", "Assigned category": "inactive"}
{"Compound": "COc1c2c(c3c(c1CCC(=O)O)OC(C)(C)C=C3)OC(C)(C)C=C2", "Assigned category": "inactive"}
{"Compound": "O=NC1c2cccc3cccc(c23)C1N=O (stereo not given)", "Assigned category": "inactive"}
{"Compound": "O=C1Nc2ccc(Br)cc2C1=Nc1ccc(Cl)cc1", "Assigned category": "inactive"}
{"Compound": "C[n+]1c(/C=C/c2ccc(/C=N/NC(=O)c3ccc(C(=O)N/N=C/c4ccc(/C=C/c5cn6ccccc6[n+]5C)cc4)cc3)cc2)cn2ccccc21", "Assigned category": "inactive"}

Q) Could you please tell me the result logged for `CC(=O)O/N=C1C=C/C(=C(/C#N)c2ccccc2)C=C/1C` in this assay?
A) inactive
